Target: T1, human C5 (human, UniProt P01031 19-673; P01031 678-1676, Beta and alpha chains are disulfide-linked and the protein is glycosylated.)
T1 construct: Either in-house recombinant C5 or plasma derived C5 (CALBIOCHEM) was used; also called recombinant human C5; plasma derived human C5
Assay: Biacore, captured antibody, pH 7.4, 37 C;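 also: biacore binding response of anti-C5 antibody light chain variants captured on chip with human C5 injected, ACES running buffer containing 1.2 mM CaCl₂, parent light chain antibody set to 100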
endpoint: % binding (parent = 100) (%)
Write it as a number; the unit % goes unstated.

Answered examples (4):
binder: CFP0011 11L 30S (antibody, V domains shown) VH: QVQLVQSGAEVKKPGSSVKVSCKASGGTFSSYAISWVRQAPGQGLEWMGGIIPIFGTANYAQKFQGRVTITADESTSTAYMELSSLRSEDTAVYYCARDMSEFLGWSNYYSYPMDVWGQGTTVTVSS VL: DIQMTQSPSSLSASVGDRVTITCRASQSISDDLAWYQQKPGKAPKLLIYHASSLQSGVPSRFSGSGSGTDFTLTISSLQPEDFATYYCQQSDNSPYTFGQGTKVEIK
endpoint: % binding (parent = 100)
experimentalResult: 44.5
--
binder: CFP0018 18L 30E (antibody, V domains shown) VH: QVQLVQSGAEVKKPGSSVKVSCKASGGTFSSYAISWVRQAPGQGLEWMGGIIPIFGTANYAQKFQGRVTITADESTSTAYMELSSLRSEDTAVYYCARQLYGYYELDIWGQGTLVTVSS VL: DIQMTQSPSSLSASVGDRVTITCRASQSIEDDLAWYQQKPGKAPKLLIYEASSLQSGVPSRFSGSGSGTDFTLTISSLQPEDFATYYCQQYNSYPLTFGQGTKVEIK
endpoint: % binding (parent = 100)
experimentalResult: 20.8
--
binder: CFP0011 11L 50A (antibody, V domains shown) VH: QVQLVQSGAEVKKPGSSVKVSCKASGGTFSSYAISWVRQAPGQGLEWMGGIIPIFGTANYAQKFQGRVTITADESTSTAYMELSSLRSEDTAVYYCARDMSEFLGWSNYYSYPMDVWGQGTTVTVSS VL: DIQMTQSPSSLSASVGDRVTITCRASQSIEDDLAWYQQKPGKAPKLLIYAASSLQSGVPSRFSGSGSGTDFTLTISSLQPEDFATYYCQQSDNSPYTFGQGTKVEIK
endpoint: % binding (parent = 100)
experimentalResult: 95.2
--
binder: CFP0021 21L 53S (antibody, V domains shown) VH: QVQLVESGGGLVQPGGSLRLSCAASGFTFSDHYMDWVRQAPGKGLEWVGRTRNKANSYTTEYAASVKGRFTISRDDSKNSLYLQMNSLKTEDTAVYYCARTGMMYWGIFDVWGQGTLVTVSS VL: DIQMTQSPSSLSASVGDRVTITCRASQSIEDDLAWYQQKPGKAPKLLIYHASSLQSGVPSRFSGSGSGTDFTLTISSLQPEDFATYYCQQHDSYPLTFGQGTKVEIK
endpoint: % binding (parent = 100)
experimentalResult: 73.2

Moving on to the next binder.
Looking up CFP0021 21L 50A (antibody, V domains shown) VH: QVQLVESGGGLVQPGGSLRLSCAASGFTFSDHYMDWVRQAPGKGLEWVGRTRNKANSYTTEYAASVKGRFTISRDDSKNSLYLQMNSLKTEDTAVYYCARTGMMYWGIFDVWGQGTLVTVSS VL: DIQMTQSPSSLSASVGDRVTITCRASQSIEDDLAWYQQKPGKAPKLLIYAASTLQSGVPSRFSGSGSGTDFTLTISSLQPEDFATYYCQQHDSYPLTFGQGTKVEIK , I found its % binding (parent = 100) recorded as 33.4

Recorded values, source patent US20180016327A1.
